# method_summary: Plasma and CSF pharmacokinetics in beagle dogs
# Type: in vivo, dog
# stated_conditions: read-out: maximum plasma concentration (Cmax), 1.5 mg/kg oral, mean±SD

| structure_notation | Cmax |
| --- | --- |
| COc1cnc(C(=O)Nc2ccc(F)c([C@]34CN(c5ncc(F)cn5)C[C@H]3CSC(N)=N4)c2)cn1 | 2990 nM |

---

# target_entity: Renin recombinant human enzyme (Homo sapiens)
# Sequence (P00797 67-406): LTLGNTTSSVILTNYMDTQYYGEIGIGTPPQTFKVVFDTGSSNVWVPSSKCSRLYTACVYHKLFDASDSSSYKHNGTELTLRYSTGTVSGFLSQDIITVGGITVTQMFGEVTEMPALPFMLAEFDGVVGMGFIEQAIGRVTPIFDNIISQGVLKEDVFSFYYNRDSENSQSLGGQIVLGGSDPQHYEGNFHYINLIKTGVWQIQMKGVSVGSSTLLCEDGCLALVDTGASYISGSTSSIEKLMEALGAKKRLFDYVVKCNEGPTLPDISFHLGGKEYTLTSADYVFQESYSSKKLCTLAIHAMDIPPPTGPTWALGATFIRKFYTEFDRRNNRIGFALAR
# method_summary: Renin FRET assay
# Format: biochemical
# stated_conditions: read-out: Renin FRET Assay Absolute IC50; n = 1/2; value (SD)
quantity_name: IC50

| structure_notation | target_entity | result |
| --- | --- | --- |
| COc1cnc(C(=O)Nc2ccc(F)c([C@]34CN(c5ncc(F)cn5)C[C@H]3CSC(N)=N4)c2)cn1 | Renin recombinant human enzyme (Homo sapiens) | > 14 µM |
